System: K-562 leukemia
Assay: NCI tumour cell line growth inhibition, 48 h
Below, each entry is listed with its recorded GI50.
MEASUREMENT LABEL: GI50

| MOLECULE | RESULT |
| --- | --- |
| [Au+].c1c[n-]cn1.c1ccc([PH+](c2ccccc2)c2ccccc2)cc1 | 2610 nM |
| COc1ccc(/C=C/C(=O)c2ccccc2)cc1OC | 3950 nM |
| COc1cc(/C=C/c2ccc(S(N)(=O)=O)cc2)cc(OC)c1 | 28700 nM |
| ClCc1ccc(-c2ccc(Cn3cnc4c(Cl)ncnc43)cc2)cc1 | 2900 nM |
| COC1/C=C/OC2(C)Oc3c(C)c(O)c4c(O)c(c(C=NOC(c5ccccc5)c5ccccc5)c(O)c4c3C2=O)NC(=O)/C(C)=C/C=C/C(C)C(O)C(C)C(O)C(C)C(OC(C)=O)C1C (stereo not given) | 2170 nM |

---

Tested on: SN12C renal
Assay: NCI tumour cell line growth inhibition, 48 h
# cutoff 40 µM applies to TGI; >= gives T, < gives F

| COMPOUND | GROUP |
| --- | --- |
| C=C(C)C1CCC2(C(=O)O)CCC3(C)C(CCC4C5(C)CCC(O)C(C)(C)C5CCC43C)C12 (stereo not given) | F |
| CC(=O)Nc1ccc(Cc2ccc3[nH]c(=O)cc(C)c3c2)cc1 | T |
| CCOP(=O)(OCC)C(C)(CC)/N=C(\N)NC#N (stereo not given) | T |
| COc1ccc(N2C(=O)C(=O)C3(CCCCC3)C2=O)c(OC)c1OC | T |
| O=C(Nc1nc(-c2ccccc2Cl)cs1)c1cc(-c2ccc(Cl)cc2)nc2ccc(Cl)cc12 | T |
| O=C1C=CC(=O)[C@H]2C3C=CC(C4C3C3(Cl)C(Cl)=C(Cl)[C@]4(Cl)C3(Cl)Cl)[C@@H]12 (stereo not given in full) | F |
| CCN(CC)CCNC(=O)C(Cl)=C1C(Cl)=C(Cl)C(Cl)=C1Cl | T |
| COC(=O)C1Cc2c([nH]c3ccccc23)-c2[nH]c3ccccc3c2CC(NC(C)=O)C(=O)N2CCCC2C(=O)N1 (stereo not given) | T |

---

Test system: CCRF-CEM leukemia
Assay: NCI tumour cell line growth inhibition, 48 h

| COMPOUND | TGI |
| --- | --- |
| O=[P+](O)c1cccnc1 | > 100 µM |
| Brc1ccc(C[N+]23CN4CN(CN(C4)C2)C3)cc1 | 62.9 µM |
| NCCN(CCN)/[N+]([O-])=N/O | > 100 µM |
| COc1ccc(Oc2nc3c(N)cc(C(F)(F)F)cc3nc2-c2ccccc2)cc1 | > 100 µM |
| NCCCCCCCCCn1c2c(c3ccccc3c1=O)C(=O)c1ccccc1-2 | > 50 µM |
| CCN(CCN(CC)C(=O)NC)C(=O)NC | > 100 µM |
| O=C1CCCCCCCCCCOC(=O)CCCCCCCCCCO1 | > 100 µM |
| CN1c2ccccc2S(=O)(=O)n2c(COc3ccccc3)nnc21 | > 100 µM |
| O=C(c1cccnc1)N1N=C(c2ccc3c(c2)OCO3)CC1(O)c1cc(F)c(Cl)cc1Cl (configuration not stated) | 75.4 µM |
| CN(C)C1(c2cc3ccccc3s2)CCCCC1 | 0.0223 µM |
| O=C1NC2OC(CO)C(O)C(O)C2O1 (configuration not stated) | > 100 µM |
| Cc1ccc(O)cc1 (tested in a mixture with another compound) | > 100 µM |

---

System: HL-60(TB) leukemia
Experiment: NCI tumour cell line growth inhibition, 48 h
Below, each entry is listed with its recorded TGI.

| MOLECULE | TGI |
| --- | --- |
| CCOC(=O)C1=C(C)N(c2ccc(Cl)cc2)C2(O)C=CC(Nc3ccc(Cl)cc3)=C3C(=O)N(c4ccccc4)C(=O)C312 (stereo not given) | 23.4 µM |
| COc1cc(CC(=O)c2cc3c(cc2-c2ccccc2)OCO3)cc(OC)c1OC | > 100 µM |
| NC(CS)C(=O)NCCNc1ccc(NCCNC(=O)C(N)CS)c2c1C(=O)c1c(O)ccc(O)c1C2=O (stereo not given) | 0.0414 µM |
| O=C1CCc2ccccc2O1 | > 100 µM |
| O=C(NCCCc1cn[nH]c(=O)n1)c1cccc2nc3ccccc3nc12 | > 100 µM |
| CC1(C)OC2[C@@H](CO[C@@]3([C@H]4OC(C)(C)O[C@@H]4CO)OC(C)(C)O[C@@H]23)O1 (stereo not given in full) | > 100 µM |
| O=C1C=CC(=O)[C@H]2C3C=CC(C4C3C3(Cl)C(Cl)=C(Cl)[C@]4(Cl)C3(Cl)Cl)[C@@H]12 (stereo not given in full) | 4.63 µM |
| COC(=O)c1cc2c(nc1C)-c1ccccc1OS2(=O)=O | > 100 µM |
| CCCCc1c2c(nc3c1CCCC3=O)CCCC2 | > 100 µM |
| N#CCN1CCCN(CC#N)CCN(CC#N)CCCN(CC#N)CC1 | > 100 µM |

---

Test system: HCT-116 colon
Assay: NCI tumour cell line growth inhibition, 48 h

| COMPOUND | TGT | TGI |
| --- | --- | --- |
| CC(=O)Nc1ccc(Cc2ccc3[nH]c(=O)cc(C)c3c2)cc1 | HCT-116 colon | > 100 µM |
| CN(CCCCN)c1ccc2c(=O)[nH][nH]c(=O)c2c1 | HCT-116 colon | > 100 µM |
| COc1cc([C@@H]2c3cc4c(cc3[C@@H](NC(=O)c3ccc(OC(C)=O)cc3)C3COC(=O)[C@@H]32)OCO4)cc(OC)c1O (some centres not stated) | HCT-116 colon | 15.3 µM |
| Cc1cc(N)c2cc(NC(=O)Nc3ccc4nc(C)cc(N)c4c3)ccc2n1 | HCT-116 colon | > 100 µM |
| CS(=O)(=O)c1ccc(-c2cnc(NCc3ccco3)n3cnnc23)cc1 | HCT-116 colon | > 100 µM |
| COc1ccc(C=NCCCN=Cc2ccc(OC)cc2O)c(O)c1 | HCT-116 colon | > 100 µM |
| O=C1C(Cl)C(c2ccc([N+](=O)[O-])cc2)N1n1cnc2ccccc2c1=O (configuration not stated) | HCT-116 colon | > 100 µM |
| O=C(O)CCCc1cc2c(s1)-c1cccc3cccc-2c13 | HCT-116 colon | > 100 µM |
| C/C(CC(=O)Nc1ccc([N+](=O)[O-])cc1)=N\Nc1ccc([N+](=O)[O-])cc1[N+](=O)[O-] | HCT-116 colon | > 100 µM |
| Cn1cc(-c2ccc3nnc(C(F)(F)c4ccc5ncccc5c4)n3n2)cn1 | HCT-116 colon | > 100 µM |
| CC(C)=Cc1cc(C(=O)NCCNC(=O)c2cc(C=C(C)C)nc(NC#N)n2)nc(NC#N)n1 | HCT-116 colon | > 100 µM |
| O=C(Nc1ccc(Cl)cc1)c1cc2ccccc2cc1OP(=O)(O)O | HCT-116 colon | 11.9 µM |
| CSc1nc(SC)c2c(C)cn(C3OC(C)C(O)C(O)C3O)c2n1 (configuration not stated) | HCT-116 colon | > 100 µM |
| Cc1sc2nc3n(c(=O)c2c1C)N=C(c1ccccc1)CS3 | HCT-116 colon | > 100 µM |
| O=c1[nH]c(-c2ccc(Cl)cc2)cc2ccsc12 | HCT-116 colon | > 100 µM |
| O=P(Nc1cccc(Cl)c1)(Oc1ccccc1)N(CCCl)CCCl (configuration not stated) | HCT-116 colon | 25.8 µM |
| COc1cc2nc3n(c(=O)c2cc1OC)CCCCC3 | HCT-116 colon | > 100 µM |
| Cc1nc2cc(Nc3nc(Nc4ccc(F)cc4)nc(N4CCCC4)n3)ccc2n1Cc1ccccc1 | HCT-116 colon | 3.09 µM |
| O=C(CSc1nnc(-c2ccc(N=Cc3ccc(Cl)cc3)cc2)o1)Nc1cccc([N+](=O)[O-])c1 | HCT-116 colon | > 100 µM |
| NCCCCCCCCCn1c2c(c3ccccc3c1=O)C(=O)c1ccccc1-2 | HCT-116 colon | 17.2 µM |
| COc1ccc(C2NC3=C(CCCC3)N2)cc1 | HCT-116 colon | > 100 µM |
| O=[N+]([O-])c1cccc([I+]c2ccccc2)c1 | HCT-116 colon | 24.2 µM |
| CCC1OC2C(CC=C(C)C)=C3OC(C)(O)C(C)(CC)C(=O)C3=C3OC(=O)C=C1C32 (configuration not stated) | HCT-116 colon | 36.9 µM |
| N#CC(C#N)C1CN2CCC1CC2 (configuration not stated) | HCT-116 colon | > 100 µM |
| COc1ccc2nc3c([N+](=O)[O-])ccc(NCCCN(C)C)c3c(N)c2c1 | HCT-116 colon | 0.464 µM |
| COc1ccc(Nc2ncccc2C(=O)NCc2cn(Cc3cccc(Oc4ccccc4)c3)nn2)c(OC)c1 | HCT-116 colon | > 100 µM |
| O=C(NCCC1CN(S(=O)(=O)C(F)(F)F)c2ccccc21)OCc1ccccc1 (configuration not stated) | HCT-116 colon | > 100 µM |
| CSCC(COC(C)=O)(CSC)c1ccncc1 | HCT-116 colon | > 100 µM |
| c1ccc(N2N=NC3C4CC(C5c6ccccc6C45)C32)cc1 (configuration not stated) | HCT-116 colon | 82.7 µM |
| O=C(NCCCc1cn[nH]c(=O)n1)c1cccc2nc3ccccc3nc12 | HCT-116 colon | > 100 µM |
| COc1cccc2c1C(=O)c1c(O)c3c(c(O)c1C2=O)CC(O)(C(C)=O)CC3O (configuration not stated) | HCT-116 colon | 10.1 µM |
| COc1cc(CC(=O)c2cc3c(cc2-c2ccccc2)OCO3)cc(OC)c1OC | HCT-116 colon | > 100 µM |
| C=CC(=C)CCC(Br)C(C)(C)Cl (configuration not stated) | HCT-116 colon | > 100 µM |
| COc1c(OC)c(OC)c(-c2cc(=O)c3c(OC)c(OC)c(OC)c(OC)c3o2)c(OC)c1OC | HCT-116 colon | 44.9 µM |
| Cc1cc2c(cc1-c1cc3c(cc1C)C(C(C)C)=C(O)C(=O)/C3=C\Nc1ccccn1)/C(=C/Nc1ccccn1)C(=O)C(O)=C2C(C)C | HCT-116 colon | > 100 µM |
| Cn1c(=O)oc2cc(C(=S)N3CCCCC3)ccc21 | HCT-116 colon | > 100 µM |
| COc1ccc(N2C(=O)C(=O)C3(CCCCC3)C2=O)c(OC)c1OC | HCT-116 colon | > 100 µM |
| COc1cc(/C=C2\CC3C4CCC5=CC(=O)CC[C@]5(C)C4CC[C@]3(C)C2=O)ccc1OCCN1CCCCC1 (some centres not stated) | HCT-116 colon | 5.75 µM |
| Cc1ccnc(NC(c2ccccc2)c2ccc3cccnc3c2O)c1 (configuration not stated) | HCT-116 colon | 14.5 µM |
| CC(=O)Oc1cc(OC(C)=O)c2c(c1)OC(c1ccc(OC(C)=O)c(OC(C)=O)c1)CC2=O (configuration not stated) | HCT-116 colon | > 100 µM |
| O=C1NC(Cc2ccccc2)C(=O)N2CCCC12 (configuration not stated) | HCT-116 colon | > 100 µM |
| Cc1cc2c(C)nn(Cc3ccccc3Cl)c2c(C#N)c1C | HCT-116 colon | > 100 µM |
